The values you see were collected from patent US5980913A.

Quick reference: half-life of the listed items.
experimental_details: Stability in Human Whole Blood at 37° C., HPLC
Format: in vitro ADME
Parameters: dose or concentration left out as unconfirmed
cond: human, human whole blood; 37° C.
Where a SMILES comes first, the peptide text is derived from it. [ ]: non-standard residue; d: D form.

NCCCC[C@@H](N)C(=O)N[C@@H](CC(N)=O)C(=O)N1CCC[C@H]1C(=O)N[C@@H](Cc1ccc(O)cc1)C(=O)O [PEPTIDE #5, H-(D-Lys)-Asn-Pro-Tyr-OH] (H-[dK]NPY-OH) : > 210 min

Now for a further compound.
What measured half-life goes with NCCCC[C@H](N)C(=O)N[C@@H](CC(N)=O)C(=O)N1CCC[C@H]1C(=O)N[C@@H](Cc1ccc(O)cc1)C(=O)O [PEPTIDE #1, H-Lys-Asn-Pro-Tyr-OH] (H-KNPY-OH) ?
~20 min

----------
experimental_details: Stability in Rat Whole Blood at 37° C., HPLC
Type: in vitro ADME
Set-up: dose or concentration left out as unconfirmed
cond: rat, rat whole blood (EDTA); 37° C.
Where a SMILES comes first, the peptide text is derived from it. [ ]: non-standard residue; d: D form.
assay_endpoint: half-life

What value of half-life has been reported for the following compound? NCCCC[C@@H](N)C(=O)N[C@@H](CC(N)=O)C(=O)N1CCC[C@H]1C(=O)N[C@@H](Cc1ccc(O)cc1)C(=O)O [PEPTIDE #5, H-(D-Lys)-Asn-Pro-Tyr-OH] (H-[dK]NPY-OH)
> 90 min
